Where do the numbers come from? From paper PMC5540273.

# Test system: MERTK
# measurement parameters: concentration: 1 μM, replicates: in singlicate; n = 1;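 also: KINOMEscan kinase panel screen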
Binary call on %Inh: T from 20% upward, F beneath that.

Below, 3 compounds whose answers are already recorded.
INSERT INTO results (compound, class_label) VALUES
  ('CCn1c(-c2nonc2N)nc2c(C#CC(C)(C)O)ncc(OCCCCN)c21.O=C(O)C(F)(F)F.O=C(O)C(F)(F)F', 'T'),
  ('Nc1ncnc2c1nc(-c1ccccc1)n2-c1ccccc1', 'F'),
  ('COc1ccc(Nc2nccc(NCCNC(=O)c3cc4ccccc4s3)n2)cc1', 'T');

For this compound, is measured %Inh 20% or higher? `c1ccc(-c2n[nH]cc2Nc2ccnc3ccccc23)nc1`
F

Does the compound `c1ccc(Oc2ccc(Nc3ccnc4cc(-c5ccc(CNCCN6CCOCC6)o5)ccc34)cc2)nc1` have recorded %Inh that is 20% or more?
F

----------
# Tested on: RSK2(Kin.Dom.1-N-terminal)
# Construct: gene RPS6KA3
# measurement parameters: concentration: 1 μM, replicates: in singlicate; n = 1
Record form. Attribute: %Inh. Fill in for each entry.
One number for each entry, in %.

Some compounds with recorded %Inh:
INSERT INTO measurements (compound, numeric_value) VALUES
  ('COc1cc(Nc2nccc(N3CCC(NC(=O)Nc4cccc(C(C)=O)c4)C3)n2)cc(OC)c1OC (centres unmarked) [GSK1379753]', 10),
  ('Cc1occc1-c1ncc(OC[C@@H](N)Cc2c[nH]c3ccccc23)cc1-c1ccc2[nH]nc(C)c2c1.O=C(O)C(F)(F)F [GSK682037]', 79),
  ('Nc1n[nH]c2cnc(-c3ccccc3)cc12 [SB-642124]', 22),
  ('COc1cc(Nc2nccc(N3CCC(NC(=O)c4cc5ccccc5s4)C3)n2)cc(OC)c1OC (centres unmarked) [GSK1379760]', 0),
  ('COc1cc(Nc2ncc3c(C)nc(-c4cc5ccccc5[nH]4)n3n2)cc(OC)c1OC [GW869516]', 49);

# map each compound to its %Inh
1. O=c1[nH]cc(-c2ccc(N3CCOCC3)cc2)c2sc(-c3cn[nH]c3)cc12 [GSK2276055]
2. Cc1ccc(C)c(NC(=O)NC2CCN(c3ccnc(Nc4ccc(F)cc4)n3)C2)c1 (centres unmarked) [GSK1379720]
3. Cn1cc(-c2[nH]c3cc(NC(=O)[C@H](N)C4CCCCC4)cc4c3c2C=NNC4=O)cn1
4. O=C(Nc1cccc(-c2nn3ccccc3c2-c2ccnc(Nc3cccc(F)c3)n2)c1)c1c(F)ccc(F)c1Cl [GSK357952]
5. Oc1cc(Nc2ccnc3cc(I)ccc23)ccc1F [GW552771]
6. Nc1ncc(-c2cccnc2)c2scc(-c3ccc4c(c3)CCN4C(=O)Cc3ccccc3)c12 [GSK683281]
7. COC(=O)Nc1nc2cc(Oc3ccc(NC(=O)Nc4cc(C(F)(F)F)ccc4F)cn3)ccc2[nH]1.Cl.Cl [GW681170]
8. c1ccc(-c2cnc3nccnn23)cc1 [AH20685]

1. 23
2. 3
3. 85
4. 18
5. 13
6. 0
7. 0
8. 0

Please state, for each entry, its recorded %Inh.
1. CNC(=O)c1ccccc1Nc1nc(Nc2ccc(N3CCOCC3)cc2)ncc1Cl.Cl [GSK1576028]
2. CC(C)(C)c1ccc2nccc(Nc3cccc(O)c3)c2c1 [GW856795]
3. COc1cccc(C(=O)Nc2cccc(Oc3ccc4nc(NC(=O)C5CC5)cn4n3)c2)c1
4. COC(=O)Nc1nc2ccc(Oc3ccc(NC(=O)Nc4cc(C(F)(F)F)ccc4F)cc3)cc2n1C.Cl [GW692089]

[100, 0, 9, 40]

----------
# System: ITK
# measurement parameters: concentration: 1 μM, replicates: in singlicate; n = 1
Threshold 10%. %Inh below it: yes (1). %Inh at it or above: no (0).

For orientation, consider the following solved cases.
INSERT INTO measurements (substance_smiles, system_tested, class_label) VALUES
  ('CN1CCN(CCCNc2nccc(-c3c(-c4ccc(F)cc4)nn4cc(C(F)(F)F)ccc34)n2)CC1', 'ITK', 'yes (1)'),
  ('CC(C)c1nc(-c2cccc(NS(=O)(=O)c3c(F)cccc3F)c2F)c(-c2ccnc(Nc3ccc(N4CCOCC4)nc3)n2)s1', 'ITK', 'no (0)'),
  ('O=C(Nc1cccc(-c2nn3ncccc3c2-c2ccnc(Nc3ccccc3)n2)c1)c1c(F)cccc1F', 'ITK', 'no (0)'),
  ('CCn1c(-c2nonc2N)nc2c(C#CC(C)(C)O)nc(OC[C@H](N)c3ccccc3)cc21', 'ITK', 'yes (1)');

Threshold test, %Inh < 10%: `COc1cccc(C2=C(Nc3ccc(Cl)c(C(=O)O)c3)C(=O)NC2=O)c1`
no (0)

State whether 10% exceeds %Inh recorded for `c1ccc(-c2n[nH]cc2Nc2ccnc3ccccc23)nc1` .
no (0)

Hi there! Is %Inh for `COCCOCCOc1cc2ncc3c4ccc(C#N)cc4[nH]c3c2cc1OC` below 10%, do you know?
no (0)

Threshold test, %Inh < 10%: `Oc1cc(Nc2ccnc3cc(I)ccc23)ccc1F`
yes (1)

----------
# System: RSK3(Kin.Dom.1-N-terminal)
# Construct: gene RPS6KA2
# measurement parameters: concentration: 1 μM, replicates: in singlicate; n = 1
Lab note: compare %Inh against 6%. Equal or greater, write yes (1). Smaller, write no (0).

Check out these entries, answers already filled in.
INSERT INTO results (compound, system_tested, class_label) VALUES
  ('COc1cc(Nc2nccc(-c3c(-c4cccc(NC(=O)c5c(F)cccc5F)c4)nn4ncccc34)n2)cc(OC)c1OC', 'RSK3(Kin.Dom.1-N-terminal)', 'yes (1)'),
  ('Nc1n[nH]c2cnc(-c3ccccc3)cc12', 'RSK3(Kin.Dom.1-N-terminal)', 'yes (1)'),
  ('COc1cc(Nc2nccc(N3CCC(NC(=O)Nc4cccc(C(C)=O)c4)C3)n2)cc(OC)c1OC (stereo not drawn)', 'RSK3(Kin.Dom.1-N-terminal)', 'yes (1)'),
  ('Cl.c1ccc(-c2ccc3c(Nc4ccc5[nH]ccc5c4)ccnc3c2)nc1', 'RSK3(Kin.Dom.1-N-terminal)', 'no (0)'),
  ('Cc1occc1-c1ncc(OC[C@@H](N)Cc2c[nH]c3ccccc23)cc1-c1ccc2[nH]nc(C)c2c1.O=C(O)C(F)(F)F', 'RSK3(Kin.Dom.1-N-terminal)', 'yes (1)');

Decide: %Inh of `Clc1ccc(-c2nn3ncccc3c2-c2ccnc(Nc3ccc4c(c3)OCCO4)n2)cc1` >= 6%?
no (0)

Reported %Inh at or above 6%? `Nc1ncc(-c2ccc3nccc(-c4ccncc4)c3c2)cc1S(=O)(=O)N1CCOCC1`
yes (1)

Quick check: does NCCCC(NC(=O)c1cc(Br)c(-c2ccnc3[nH]ccc23)s1)c1ccccc1.O=C(O)C(F)(F)F.O=C(O)C(F)(F)F (stereo not drawn) have %Inh greater than or equal to 6%?
yes (1)

Please check the record `Nc1ncnc2c1nc(-c1ccccc1)n2-c1ccccc1` and state if its %Inh is at or above 6%.
yes (1)

Determine whether measured %Inh meets or exceeds 6% for `COc1ccc(Nc2nccc(NCCNC(=O)c3cc4ccccc4s3)n2)cc1`
no (0)

Entry `C[C@@H]1CC[C@@H](C(=O)Nc2ccccc2)CN1c1cc(-c2ccc3c(N)n[nH]c3c2)nc(N)n1` : is its %Inh no less than 6%?
no (0)

Does the reported %Inh for `Cc1cccc(NC(=O)Nc2ccc(Oc3ncnc4ccn(C)c34)cc2)c1` fall at or above the 6% mark?
no (0)

Exam item: decide whether the reported %Inh for `CSc1cccc2c(-c3ccncn3)c(-c3ccc(F)cc3)nn12` is at least 6%.
yes (1)

Does the reported %Inh for `O=C(Nc1cccc(-c2nn3ccccc3c2-c2ccnc(Nc3cccc(C(F)(F)F)c3)n2)c1)c1c(F)cccc1F` fall at or above the 6% mark?
no (0)

%Inh >= 6% for `Cc1ccc(S(=O)(=O)Nc2ccc(Nc3nccc(Nc4cccc5[nH]ncc45)n3)cc2)cc1` ?
no (0)

Hi, just wondering whether `COc1cc2c(cc1OCCN1CCNCC1)ncc1c3ccc(C#N)cc3[nH]c21` shows %Inh of 6% or higher.
yes (1)

Form field: %Inh at least 6%? Entry: `Cc1ccc(C(=O)Nc2ccc(Nc3ccnc4cc(-c5nccs5)ccc34)cc2O)cc1.Cl`
yes (1)

----------
# Test system: WNK2
# measurement parameters: concentration: 1 μM, replicates: in singlicate; n = 1
Would you mind telling me the reported %Inh of each entry?
Give bare numbers, in %.

INSERT INTO results (molecule, unit_label, numeric_value) VALUES
  ('Cl.Cl.NCC(NC(=O)c1cc(-c2ccccc2)c(-c2ccnc3[nH]ccc23)s1)c1ccccc1 (centres unmarked) [GSK1321561]', '%', 100),
  ('CC(=O)Nc1nc2cnc(Nc3cc(NC(=O)c4cccc(C5(C#N)CC5)c4Cl)ccc3C)nc2s1', '%', 0),
  ('COc1ccc(Nc2nccc(NCCNC(=O)c3cc4ccccc4s3)n2)cc1 [GSK1379896]', '%', 55),
  ('COc1cccc(-c2ccc3c(NC(=O)C4CC4)n[nH]c3n2)c1 [SB-710903]', '%', 57),
  ('c1ccc(-c2cnc3nccnn23)cc1 [AH20685]', '%', 2);

Record %Inh for all entries; do not skip any.
1. Fc1ccc(-c2ncn(C3CCNCC3)c2-c2ccnc(Oc3ccc(-c4ccccc4)cc3)n2)cc1 [SB-245391]
2. COc1cc(Nc2nccc(-c3c(-c4cccc(NC(=O)c5c(F)cccc5F)c4)nn4ccccc34)n2)cc(OC)c1OC [GSK323521]
3. Cl.c1ccc(-c2ccc3c(Nc4ccc5[nH]ncc5c4)ccnc3c2)nc1 [GW440137]

0
59
14
